# assay_info: recombinant UMI read abundance after kanamycin selection (control-corrected) (log10(CPM+1)); higher = more efficient recombination; extreme values may be limits of the assay; sequences stand for … in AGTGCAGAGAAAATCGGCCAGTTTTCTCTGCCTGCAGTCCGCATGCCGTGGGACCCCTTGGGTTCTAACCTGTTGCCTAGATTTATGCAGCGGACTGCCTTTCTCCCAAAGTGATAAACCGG…AGGTTGGTTTCACT; site = the 11-nt donor;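 also: IS621 bridge recombinase in Escherichia coli cells against a fixed T5 target plasmid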
Each record here notes measured recombinant UMI read abundance (log10).
Number only, no unit.

>>> value_observed("CTCTCTACATGGACCGGTTTTCCCGGTAATCCGTATTTGAG (site CTCGCTACTCT)")
0.00461
>>> value_observed("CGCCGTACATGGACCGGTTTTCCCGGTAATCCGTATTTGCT (site CGCCGTTCTAG)")
0
>>> value_observed("CTACTAGCATGGACCGGTTTTCCCGGTAATCCGTATTTGAA (site CTACTAGCTTT)")
1.95
>>> value_observed("TAGTTGACATGGACCGGTTTTCCCGGTAATCCGTATTTGCT (site TACTTGACTAG)")
0.55
>>> value_observed("CTCCACACATGGACCGGTTTTCCCGGTAATCCGTATTTGCT (site CTCGACACTAG)")
0
>>> value_observed("ACAATATCATGGACCGGTTTTCCCGGTAATCCGTATTTGCT (site ACAATATCTAG)")
2.64

Name the recorded recombinant UMI read abundance (log10) for GCCACGCCATGGACCGGTTTTCCCGGTAATCCGTATTTGCA (site GCCACGCCTTC) .
0.0237

Name the recorded recombinant UMI read abundance (log10) for AGAATGGCATGGACCGGTTTTCCCGGTAATCCGTATTTGCT (site AGAAAGGCTAG) .
1.89

Name the recorded recombinant UMI read abundance (log10) for GCCTCTACATGGACCGGTTTTCCCGGTAATCCGTATTTGCC (site GCCTCTACTGG) .
1.37
